// data source = patent US12448369B2

Parameter Skeletal EC25: see the listing below.
# Test system: Rabbit Psoas myofibrils (skeletal myosin ATPase)
# Experimental Protocol: Myofibril ATPase assay, rabbit psoas (skeletal) myofibrils
# Type: biochemical
# Measurement Setup: Y75 value (no ‡ mark); rabbit psoas myofibrils
Respond numerically; units are nM and should not be typed.

[ask] Endpoint output: Skeletal EC25 of `Cc1c(CC(=O)N[C@@H](C)c2ccc(F)cc2F)c(=O)[nH]c2ccc(Br)cc12` . Value?
[reply] 50

[ask] Request the reported Skeletal EC25 associated with CC[C@H](NC(=O)Cc1c(C)c2c(C)c(F)ccc2[nH]c1=O)c1ncc(C#N)cn1 (single isomer, unassigned)
[reply] 150

[ask] Given the compound `C[C@H](NC(=O)Cc1cc2cc(C3CC3)ccc2[nH]c1=O)c1ccc(F)cc1F` , what is its reported Skeletal EC25?
[reply] 6320

Continuing:
[ask] Form field: reported Skeletal EC25 of C[C@@H](NC(=O)C(F)(F)c1cc2c(C#N)c(F)ccc2[nH]c1=O)c1ncc(C#N)cc1F (single isomer, unassigned)
[reply] 240

[ask] Which Skeletal EC25 is reported for this compound? O=C(Cc1cc2cc(F)ccc2[nH]c1=O)N1CC[C@H]2C[C@@H]1c1ccccc12 (single isomer, unassigned)
[reply] 500

[ask] Dear colleague, I am looking for the recorded Skeletal EC25 of the following compound: Cc1c(C2(C(=O)N[C@H](C)c3ncc(C#N)cn3)CC2)c(=O)[nH]c2ccc(F)c(C#N)c12 (single isomer, unassigned)
[reply] 2080

----------
# Target Under Test: Porcine ventricle myofibrils (ventricular myosin ATPase) (Sus scrofa, UniProt P79293)
# Construct: Myofibrils from porcine cardiac muscle was isolated from the left ventricle of Yucatan minipigs; tissue Exemplar Genetics; host or cells: left ventricle of Yucatan minipigs, myofibrils prepared in house
# Sequence (P79293 whole entry): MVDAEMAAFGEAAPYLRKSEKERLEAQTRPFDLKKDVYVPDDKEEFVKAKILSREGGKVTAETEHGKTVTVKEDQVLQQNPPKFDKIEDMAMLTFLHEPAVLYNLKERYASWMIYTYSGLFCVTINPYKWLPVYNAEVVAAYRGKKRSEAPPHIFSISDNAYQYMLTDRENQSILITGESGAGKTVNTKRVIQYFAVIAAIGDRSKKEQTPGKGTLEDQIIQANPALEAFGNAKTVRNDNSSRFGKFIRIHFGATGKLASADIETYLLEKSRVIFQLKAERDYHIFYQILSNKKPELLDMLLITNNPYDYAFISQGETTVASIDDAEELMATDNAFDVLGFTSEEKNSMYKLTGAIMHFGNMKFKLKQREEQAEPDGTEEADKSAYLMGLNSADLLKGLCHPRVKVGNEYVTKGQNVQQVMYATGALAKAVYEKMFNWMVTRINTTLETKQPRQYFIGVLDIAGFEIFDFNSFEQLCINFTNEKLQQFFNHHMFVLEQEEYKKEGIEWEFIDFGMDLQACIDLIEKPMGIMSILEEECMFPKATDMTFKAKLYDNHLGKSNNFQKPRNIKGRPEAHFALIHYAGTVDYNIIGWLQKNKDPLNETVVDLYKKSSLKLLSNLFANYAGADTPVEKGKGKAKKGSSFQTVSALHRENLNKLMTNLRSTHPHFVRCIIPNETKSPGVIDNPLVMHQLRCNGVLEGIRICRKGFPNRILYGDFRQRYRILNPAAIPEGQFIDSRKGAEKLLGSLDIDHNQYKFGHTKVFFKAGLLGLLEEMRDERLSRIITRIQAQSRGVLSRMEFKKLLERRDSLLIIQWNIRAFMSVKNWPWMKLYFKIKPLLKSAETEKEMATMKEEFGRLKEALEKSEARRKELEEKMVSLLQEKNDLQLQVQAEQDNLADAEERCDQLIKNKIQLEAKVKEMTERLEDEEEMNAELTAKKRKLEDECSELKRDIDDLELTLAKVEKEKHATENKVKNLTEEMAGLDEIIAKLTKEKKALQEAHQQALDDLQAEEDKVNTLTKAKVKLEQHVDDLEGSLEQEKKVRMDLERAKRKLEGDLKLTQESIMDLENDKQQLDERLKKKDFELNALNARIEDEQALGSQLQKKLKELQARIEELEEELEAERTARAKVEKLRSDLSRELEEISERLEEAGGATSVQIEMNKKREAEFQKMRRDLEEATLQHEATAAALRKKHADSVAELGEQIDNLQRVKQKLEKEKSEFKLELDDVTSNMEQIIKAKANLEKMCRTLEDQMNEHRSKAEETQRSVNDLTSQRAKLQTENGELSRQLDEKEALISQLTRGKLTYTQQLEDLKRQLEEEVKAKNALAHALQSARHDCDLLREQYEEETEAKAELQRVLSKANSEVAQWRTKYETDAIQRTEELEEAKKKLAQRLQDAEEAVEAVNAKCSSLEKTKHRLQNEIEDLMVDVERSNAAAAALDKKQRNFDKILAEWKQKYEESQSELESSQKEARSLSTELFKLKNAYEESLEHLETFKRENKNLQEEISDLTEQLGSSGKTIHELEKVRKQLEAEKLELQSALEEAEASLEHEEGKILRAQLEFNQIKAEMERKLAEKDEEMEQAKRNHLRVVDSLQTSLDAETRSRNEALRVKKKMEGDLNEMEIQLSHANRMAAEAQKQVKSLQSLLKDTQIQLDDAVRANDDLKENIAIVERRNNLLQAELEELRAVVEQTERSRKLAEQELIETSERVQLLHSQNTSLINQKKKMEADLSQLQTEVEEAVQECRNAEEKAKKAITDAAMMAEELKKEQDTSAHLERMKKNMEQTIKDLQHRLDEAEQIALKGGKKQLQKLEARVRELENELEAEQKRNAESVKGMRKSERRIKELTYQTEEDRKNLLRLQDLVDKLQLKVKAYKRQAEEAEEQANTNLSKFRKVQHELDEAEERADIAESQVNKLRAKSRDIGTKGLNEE
# Experimental Protocol: Myofibril ATPase assay, porcine ventricle myofibrils
# Format: biochemical, porcine (Yucatan minipigs)
# Measurement Setup: Y75 value (no ‡ mark); porcine ventricle myofibrils
Rule: 1 (yes) for Ventricular EC25 not less than 0.2 µM, 0 (no) for anything less.

The examples below pair each entry with its known result.
[ask] Is the recorded value of Ventricular EC25 equal to or greater than 0.2 µM for this molecule? Cc1c(CC(=O)NC(C)c2cnc(C#N)cn2)c(=O)[nH]c2ccc(F)c(F)c12 (stereo in doubt)
[reply] 0 (no)

[ask] For this molecule, is measured Ventricular EC25 0.2 µM or higher? `C[C@@H](NC(=O)Cc1cc2c(F)c(F)ccc2[nH]c1=O)c1ncc(C#N)cc1F`
[reply] 0 (no)

[ask] Textbook exercise: given the entry N#Cc1cc(F)c2c(c1)OC[C@@H]2NC(=O)C1(c2cc3c(F)c(F)ccc3[nH]c2=O)CC1 (single isomer, unassigned) , state whether its Ventricular EC25 is greater than or equal to 0.2 µM.
[reply] 1 (yes)

***
[ask] Identify whether the reported Ventricular EC25 of the following molecule is 0.2 µM or greater: `COc1ccc2[nH]c(=O)c(CC(=O)N[C@@H](C)c3ccc(F)cc3F)c(C)c2c1C#N`
[reply] 1 (yes)

[ask] Say whether C[C@@H](NC(=O)Cc1c(C2CC2)c2cc(F)ccc2[nH]c1=O)c1ncc(C#N)cn1 (single isomer, unassigned) shows Ventricular EC25 of 0.2 µM or more.
[reply] 1 (yes)

[ask] Record `Cc1c(CC(=O)N[C@H](C)c2ncc(C#N)cc2F)c(=O)[nH]c2cc(F)ccc12` ; criterion: Ventricular EC25 no lower than 0.2 µM. Met?
[reply] 1 (yes)
